pIC50 overview
system: KAT-8 (Homo sapiens (Human))
Sequence (Q9H7Z6 other isoform, or with tags, fused parts or gaps): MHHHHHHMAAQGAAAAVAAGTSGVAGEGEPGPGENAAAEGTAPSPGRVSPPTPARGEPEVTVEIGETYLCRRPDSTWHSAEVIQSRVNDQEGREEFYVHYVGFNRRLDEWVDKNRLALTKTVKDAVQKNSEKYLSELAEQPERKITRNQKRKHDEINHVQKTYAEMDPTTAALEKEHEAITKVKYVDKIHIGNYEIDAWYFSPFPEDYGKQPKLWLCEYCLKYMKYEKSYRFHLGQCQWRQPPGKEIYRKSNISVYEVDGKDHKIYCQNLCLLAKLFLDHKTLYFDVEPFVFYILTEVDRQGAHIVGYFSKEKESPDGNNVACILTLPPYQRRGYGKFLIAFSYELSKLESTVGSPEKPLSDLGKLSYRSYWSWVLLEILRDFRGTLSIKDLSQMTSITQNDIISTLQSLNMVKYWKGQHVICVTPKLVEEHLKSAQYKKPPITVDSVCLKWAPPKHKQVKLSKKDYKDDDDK
assay.comment: KAT-8 biochemical inhibition assay (SAMDI mass spectrometry)
pIC50: −log10 of the molar value.

Please report the recorded pIC50 for Cn1cnc(-c2cc(Cl)c(F)c(C(=O)NNS(=O)(=O)C[C@@H]3CCOC3)c2)c1 [Compound I-372] .
4.30 to 5.00

Fill in: pIC50 of Cc1nn(C)c(C)c1-c1cc(Cl)c(F)c(C(=O)NNS(=O)(=O)CC2CCOCC2)c1 [Compound I-58] is ___
< 4.00

Please give the measured pIC50 for this molecule: COCCn1cnc(-c2cc(C)c(F)c(C(=O)NNS(=O)(=O)CC3CCCN(C(=O)COC)C3)c2)c1 (stereo not drawn) [Compound I-137]
< 4.00

Consider the molecule shown here: Cc1nc(-c2cc(Cl)c(F)c(C(=O)NNS(=O)(=O)CC3CCOCC3)c2)cs1 [Compound I-70] What is its recorded pIC50?
4.30 to 5.00

Record request: pIC50 value, item Cn1cnc(-c2cc(Cl)c(F)c(C(=O)NNS(=O)(=O)CC3CCCC(F)(F)C3)c2)c1 (stereo not drawn) [Compound I-342]
4.30 to 5.00

// query pIC50 value for entry Cn1cnc(-c2cc(Cl)c(F)c(C(=O)NNS(=O)(=O)C[C@H]3C[C@@H](NC(=O)OC(C)(C)C)C3)c2)c1 [Compound I-114]
4.30 to 5.00

----------
system: KAT-6A (Homo sapiens (Human), UniProt Q92794)
Sequence (Q92794 other isoform, or with tags, fused parts or gaps): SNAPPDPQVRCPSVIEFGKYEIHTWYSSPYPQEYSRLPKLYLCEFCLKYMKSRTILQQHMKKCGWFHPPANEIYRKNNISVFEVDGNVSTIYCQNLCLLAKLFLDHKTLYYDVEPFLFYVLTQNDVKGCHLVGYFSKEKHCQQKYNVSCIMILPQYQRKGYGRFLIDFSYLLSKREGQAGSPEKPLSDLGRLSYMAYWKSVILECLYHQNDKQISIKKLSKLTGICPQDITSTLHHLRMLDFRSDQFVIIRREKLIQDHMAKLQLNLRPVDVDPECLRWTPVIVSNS
assay.comment: KAT-6A biochemical inhibition assay (SAMDI mass spectrometry)
pIC50: −log10 of the molar value.
Items are presented alongside their recorded pIC50.

Below are worked cases with known answers.
{"columns": ["compound", "pIC50"],
 "data": [
  ["COCCn1cnc(-c2cc(C)c(F)c(C(=O)NNS(=O)(=O)CC3CCCNC3)c2)c1 (stereo not drawn) [Compound I-136]", "< 4.00"],
  ["CC(=O)N1CCCC(CS(=O)(=O)NNC(=O)c2cc(-c3cn(C)cn3)cc(Cl)c2F)C1 (stereo not drawn) [Compound I-10]", "> 5.00"],
  ["CCNC(=O)N[C@H]1C[C@@H](CS(=O)(=O)NNC(=O)c2cc(-c3cn(C)cn3)cc(Cl)c2F)C1 [Compound I-107]", "> 5.00"],
  ["CC(C)C(=O)N[C@H]1CC[C@@H](CS(=O)(=O)NNC(=O)c2cc(-c3cn(C)cn3)cc(Cl)c2F)CC1 [Compound I-222]", "4.30 to 5.00"],
  ["Cn1cnc(-c2cc(Cl)c(F)c(C(=O)NNS(=O)(=O)c3ccc(OCc4ccccc4)nc3)c2)c1 [Compound I-354]", "4.30 to 5.00"]
]}

Tell me the measured pIC50 of Cn1cnc(-c2cc(Cl)c(F)c(C(=O)NNS(=O)(=O)C[C@H]3CC[C@H](NC(=O)C4CCC4)CC3)c2)c1 [Compound I-196] , please.
> 5.00

Field request: pIC50 | item: COC1CCC(CS(=O)(=O)NNC(=O)c2cc(-c3cn(C)cn3)cc(Cl)c2F)C1 (stereo not drawn) [Compound I-387]
> 5.00

Please give the measured pIC50 for this compound: Cn1cnc(-c2cc(Cl)c(F)c(C(=O)NNS(=O)(=O)C[C@H]3CCC[C@@H](OCc4ccccc4)C3)c2)c1 [Compound I-290]
4.30 to 5.00

Which pIC50 value belongs to Cn1cnc(-c2cc(Cl)c(F)c(C(=O)NNS(=O)(=O)CC3CN(S(=O)(=O)C4CC4)C3)c2)c1 [Compound I-185] ?
> 5.00

// lookup pIC50 for CC(=O)NCc1c(-c2cn(C)cn2)cc(C(=O)NNS(=O)(=O)CC2CCCCC2)c(F)c1Cl [Compound I-470]
4.30 to 5.00

Give its pIC50 value. Item: Cn1cnc(-c2cc(Cl)c(F)c(C(=O)NNS(=O)(=O)CC3CCN(CC(F)(F)F)CC3)c2)c1 [Compound I-431]
4.30 to 5.00

Query: pIC50; subject: Cn1cnc(-c2cc(Cl)c(F)c(C(=O)NNS(=O)(=O)c3cccnc3O)c2)c1 [Compound I-430]
4.30 to 5.00

Return reported pIC50; argument: CCNC(=O)N[C@H]1CCC[C@@H](CS(=O)(=O)NNC(=O)c2cc(-c3cn(C)cn3)cc(Cl)c2F)C1 [Compound I-287]
> 5.00

So what's the measured pIC50 for this one? Cn1cnc(-c2cc(Cl)c(F)c(C(=O)NNS(=O)(=O)CC3(F)CCCCC3)c2)c1 [Compound I-358]
> 5.00

Using the record for Cc1cc(-c2cn(CCO)cn2)cc(C(=O)NNS(=O)(=O)CC2CCOCC2)c1F [Compound I-146] , report its pIC50.
4.30 to 5.00

----------
system: UniProt:O95251
Sequence (O95251 other isoform, or with tags, fused parts or gaps): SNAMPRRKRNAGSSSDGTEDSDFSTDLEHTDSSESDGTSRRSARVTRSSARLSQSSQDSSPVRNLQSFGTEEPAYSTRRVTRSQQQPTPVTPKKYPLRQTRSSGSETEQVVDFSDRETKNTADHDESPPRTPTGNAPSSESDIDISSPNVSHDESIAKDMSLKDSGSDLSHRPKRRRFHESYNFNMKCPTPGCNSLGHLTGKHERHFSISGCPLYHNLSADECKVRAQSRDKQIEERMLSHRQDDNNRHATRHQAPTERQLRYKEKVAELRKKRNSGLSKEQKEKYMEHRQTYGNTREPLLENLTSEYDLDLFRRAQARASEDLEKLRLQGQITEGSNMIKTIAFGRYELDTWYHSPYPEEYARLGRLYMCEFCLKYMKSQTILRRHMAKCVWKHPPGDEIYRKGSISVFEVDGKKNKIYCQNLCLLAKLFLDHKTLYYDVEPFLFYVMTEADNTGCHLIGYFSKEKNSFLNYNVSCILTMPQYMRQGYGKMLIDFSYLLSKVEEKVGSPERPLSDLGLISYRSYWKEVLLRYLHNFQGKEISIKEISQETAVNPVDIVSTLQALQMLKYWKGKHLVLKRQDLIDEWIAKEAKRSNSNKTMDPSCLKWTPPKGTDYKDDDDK
assay.comment: KAT-7 biochemical inhibition assay (SAMDI mass spectrometry)
test.readout: IC50

{"columns": ["chemical.smiles", "observed.measurement"],
 "data": [
  ["Cn1cnc(-c2cc(Cl)c(F)c(C(=O)NNS(=O)(=O)C[C@H]3CC[C@H](NC(=O)c4ccccc4)CC3)c2)c1", "< 10 µM"]
]}

Field request: IC50 | item: `CCNC(=O)N(C)[C@H]1CC[C@H](CS(=O)(=O)NNC(=O)c2cc(-c3cn(C)cn3)cc(Cl)c2F)CC1`
< 10 µM

What value of measured IC50 is listed for `Cn1cnc(-c2cc(Cl)c(F)c(C(=O)NNS(=O)(=O)C[C@H]3CC[C@H]4CC[C@@H]3N4)c2)c1` ?
10 to 50 µM

What does the data say about its IC50? Entry: `CN(C(=O)OC(C)(C)C)c1ccc(S(=O)(=O)NNC(=O)c2cc(-c3cn(C)cn3)cc(Cl)c2F)cc1`
< 10 µM

What value of IC50 has been reported for the following compound? `COCCc1nc(-c2cc(Cl)c(F)c(C(=O)NNS(=O)(=O)C3CCOCC3)c2)cn1C`
10 to 50 µM

I have this compound here, `Cn1cnc(-c2cc(Cl)c(F)c(C(=O)NNS(=O)(=O)C[C@H]3CC[C@H](N(C)C(=O)OC(C)(C)C)CC3)c2)c1` , and I need its recorded IC50.
< 10 µM

May I ask what IC50 has been recorded for `Cn1cc(-c2cc(Cl)c(F)c(C(=O)NNS(=O)(=O)C3CCOCC3)c2)nc1Cl` ?
10 to 50 µM

----------
system: KAT-6A (Homo sapiens (Human))
assay.comment: KAT-6A biochemical inhibition assay (SAMDI mass spectrometry)
pIC50: −log10 of the molar value.
Items are presented alongside their recorded pIC50.

Answered examples (2):
{"columns": ["molecule", "pIC50"],
 "data": [
  ["Cn1cnc(-c2cc(Cl)c(F)c(C(=O)NNS(=O)(=O)CC3CCc4ccccc4C3)c2)c1 (stereo not drawn)", "> 5.00"],
  ["COc1ccc(CN(C)C(=O)N[C@H]2C[C@H](CS(=O)(=O)NNC(=O)c3cc(-c4cn(C)cn4)cc(Cl)c3F)C2)cc1", "> 5.00"]
]}

# lookup: pIC50 of `Cc1ncc(-c2cc(Cl)c(F)c(C(=O)NNS(=O)(=O)C3CCCCC3)c2)n1C`
< 4.00

----------
system: KAT-6A (Homo sapiens (Human), UniProt Q92794)
assay.comment: KAT-6A biochemical inhibition assay (SAMDI mass spectrometry)
pIC50: −log10 of the molar value.
We begin with a simple list: items and their reported pIC50.

{"columns": ["compound", "pIC50"],
 "data": [
  ["COc1cnc(S(=O)(=O)NNC(=O)c2cc(-c3cn(C)cn3)cc(Cl)c2F)c(F)c1", "> 5.00"],
  ["Cn1cnc(-c2cc(Cl)c(F)c(C(=O)NNS(=O)(=O)CC3CC4CCC(C3)O4)c2)c1 (stereo not drawn)", "> 5.00"],
  ["Cc1ncnn1-c1cc(Cl)c(F)c(C(=O)NNS(=O)(=O)CC2CCOCC2)c1", "4.30 to 5.00"],
  ["Cn1cnc(-c2cc(Cl)c(F)c(C(=O)NNS(=O)(=O)C[C@H]3CC[C@H](NC(N)=O)CC3)c2)c1", "> 5.00"]
]}

Lab request: please report pIC50 under test system KAT-6A (Homo sapiens (Human), UniProt Q92794) for COc1ccc(CNC(=O)N2CCC(CS(=O)(=O)NNC(=O)c3cc(-c4cn(C)cn4)cc(Cl)c3F)C2)cc1 (stereo not drawn)
> 5.00

# value lookup — system KAT-6A (Homo sapiens (Human), UniProt Q92794), readout pIC50, item `CNC(=O)N1CC[C@H](CS(=O)(=O)NNC(=O)c2cc(-c3cn(C)cn3)cc(Cl)c2F)C1`
4.30 to 5.00

Lookup: pIC50 / KAT-6A (Homo sapiens (Human), UniProt Q92794) / Cn1cnc(-c2cc(Cl)c(F)c(C(=O)NNS(=O)(=O)CC3CCCOC3)c2)c1 (stereo not drawn)
> 5.00

What is its pIC50 for KAT-6A (Homo sapiens (Human), UniProt Q92794)? Entry: Cn1cnc(-c2cc(Cl)c(F)c(C(=O)NNS(=O)(=O)CC3CCCO3)c2)c1 (stereo not drawn)
> 5.00

Numbers sourced from patent US11685732B2.
